Test system: MS2 coat protein
TEST DETAILS: apparent KD of MS2 coat protein; designed switch direction (-1 OFF switch, 1 ON switch): 1; higher = weaker reporter binding
PROTOCOL CONDITIONS: input ligand: none
ASSAY ENDPOINT: apparent KD of MS2 coat protein
Express the reported value numerically, then name its unit.

Take a look at these entries with their results.
SEQUENCE RECORD	TARGET SYSTEM	RESULT
AAAGACAUGAGGAUCACCCAUGUACAGACAAACCAGUCUGCACAGGAUAUCCCGAGGAUAACUCGGGAGAAGGGUGGCCAAAAC [Onveenes] (Eterna round: R96, puzzle: Same State NG 3)	MS2 coat protein	33.5 nM
GCGGAGAGGUCAGGAUAUCCAUGGAAGACACAUGAGGAUCACCCAUGUGGGAGGGAAACCAGGAGGGAGAAGGGACCGGGACGC [ssng2 v2 c] (Eterna round: R96, puzzle: Same State NG 2)	MS2 coat protein	13.3 nM
AGUAGUGUAACAUGAGGAUCACCCAUGUAAGAAUAUGUAACCUAGGAUAUGGAGGUUAUGUUUGACCAGAAGGAGGAUUGUUUA [JR_SSNG3_Sub041] (Eterna round: R96, puzzle: Same State NG 3)	MS2 coat protein	25.9 nM
UGGUACAUGGGAGGAUAUGGGUUGAUAACAUGAGGAUCACCCAUGUUAAAUAUGCCGAGAGGCAACUAGAAGGCCCAUGUACCU [JL SSNG1 3.00] (Eterna round: R96, puzzle: Same State NG 2)	MS2 coat protein	644 nM
AGGACGAGCACAGGAUAUCCGUGGAACAGACACGGAGAAGGGUGAAGUCAUGGAAAGAAAAGACAUGAGGAUCACCCAUGUAAA [Eszaonin] (Eterna round: R96, puzzle: Same State NG 1)	MS2 coat protein	310 nM
GGCCAGAGUCAAGGAUAUGCUACCGUUUCGGUAGCAGAAGGUGAUCACAUGAGGAUCACCCAUGUAUACUGCGAGAGUAGGGCC [JL SSNG1 3.66] (Eterna round: R96, puzzle: Same State NG 1)	MS2 coat protein	197 nM
AUGGUGCAGGUACAGGAUAUGUUGCUCGUAACAUGAGGAUCACCCAUGUACCUAUGAGAUUAAAUGCAGAAGGGUGCACACCACG [Quorra] (Eterna round: R96, puzzle: Same State 2)	MS2 coat protein	1260 nM
UUACUCAUGUAAGGAUAUGCAGCCGAAACGGCUGCAGAAGGUACUAAAAUACAUGAGGAUCACCCAUGUCUUUUUAAUUUAGAC [Mat - Same State NG 1 - JL mod - D83] (Eterna round: R96, puzzle: Same State NG 1)	MS2 coat protein	33.3 nM

Each sequence below has a recorded value; state its apparent KD of MS2 coat protein.
1. UUAAUUUGUUGAGGAUAUUAUGUCAAAAGAGAAGACAUGAGGAUCACCCAUGUGAGAAAAGGUUUUAAGAAGGCAACAUUCAUA [JR_SSNG2_Sub089] (Eterna round: R96, puzzle: Same State NG 2)
2. CUGAGCAAUCUAGGAUAUCACGUCGUUUAGACGUGAGAAGGAGAUCAUAACAUGAGGAUCACCCAUGUAUUACAUGAAGCUCAG [SSNG1/7-A3] (Eterna round: R96, puzzle: Same State NG 1)
3. UGGUACAUGGGAGGAUAUCAUGCAAACAUGAGGAUCACCCAUGUAACCAUGGAGACAUGGAUAUAUGAGAAGGCCCAUGUACCU [JL SSNG1 3.51] (Eterna round: R96, puzzle: Same State NG 2)

["115 nM", "18.8 nM", "27.9 nM"]

Each sequence below has a recorded value; state its apparent KD of MS2 coat protein.
1. GCCAACUUAUGAGGAUAUGGCACCUUAUUGGUGCCAGAAGGCAUGUGAAUUCACAUGAGGAUCACCCAUGUAUUAUAGUUGGCA [Fiskers NG1ss - 20] (Eterna round: R96, puzzle: Same State NG 1)
2. ACCCAAAGUAUAUGGGAACAAGCUUUUUAACAUGAGGAUCACCCAUGUACUCGUCUUAUAAGCAGUCGAAAGACUGC [hsa-mir-208a sensor: 100] (Eterna round: R96, puzzle: Sensor for hsa-mir-208a)
3. GUAGCAUACCGAGGAUAUUCAUAUUAUAACAUGAGGAUCACCCAUGUAGGUCGAUUACGACCUUGGGAGAAGGCGGAAUGCUAC [Xeonanis - 20 Mod35] (Eterna round: R96, puzzle: Same State NG 2)

1: 356 nM; 2: 877 nM; 3: 210 nM

Each sequence below has a recorded value; state its apparent KD of MS2 coat protein.
1. GGUAUGGACACAGGAUAUGCUUACGAAACGUAAGCAGAAGGGUGAACAUGAGGAUCACCCAUGUACGUGCCAGGGCGUGAGCCC [JL SSNG1 1.77] (Eterna round: R96, puzzle: Same State NG 1)
2. UAUUUAAUCAUAGGAUAUAGAGUGAAAUUUGGACUAGAAGGAUGUAACAUGAGGAUCACCCAUGUGGUAAGUGGGACACAGUGU [JR_SSNG1_Sub094] (Eterna round: R96, puzzle: Same State NG 1)
3. ACAUGAGAAGGAGGAUAUUUUGUACCUACAUGUGACAUGAGGAUCACCCAUGUGGUAAGUAUGAGAAAGAAGGCCUAGAUAUGU [Equivalence 15 - Jieux - Same State NG 2] (Eterna round: R96, puzzle: Same State NG 2)
4. UAUUAAGCUGUAGGAUAUCUAGGAUAUGGACGAGGAUCACCCGAGCAGCAUCAGCGCACCAGAGGAGAGAAGGACGCUUUGGAA [pwkr ssNG2 2F5 2FMN.3] (Eterna round: R96, puzzle: Same State NG 2)

920 nM
129 nM
36.3 nM
916 nM

---

Tested on: MS2 coat protein
TEST DETAILS: apparent KD of MS2 coat protein; designed switch direction (-1 OFF switch, 1 ON switch): 1; higher = weaker reporter binding
PROTOCOL CONDITIONS: input ligand: FMN 200 uM
Entries are sorted into classes by apparent KD of MS2 coat protein as follows: lower (below 20 nM), middle (20 nM to below 60 nM), upper (60 nM or more)

SEQUENCE RECORD	CAT
AUAAAACAUGAGGAUCACCCAUGUCAACAAAAUCGAGGAUAUGGACAGACUUCGGUCUGUCCAGAAGGCGAAUAAU [salish99_ss1_r3_100] (Eterna round: R96, puzzle: Same State 1)	lower
UAUUAAGCUGUAGGAUAUCUAGGAUAUGGACGAGGAUCACCCGAGCAGCAUCAGCGCACCAGAGGAGAGAAGGACGCUUUGGUG [pwkr ssNG2 2F5 2FMN.23] (Eterna round: R96, puzzle: Same State NG 2)	upper
GGAUCGUCGGCAGGAUAUGAGCAAGUGCAUCGAUCAGAAGGGUCGAGUCCUAGAAGGUAAAGCACAUGAGGAUCACCCAUGUAG [Eternabot solution 39] (Eterna round: R96, puzzle: Same State NG 1)	middle
GUAGCAUACCGAGGAUAUUCAUAUAAUAAAUAACAUGAGGAUCACCCAUGUAGGCGAAAGCCUUGGGAGAAGGCGGAAUGCUAC [Xeonanis - 20 Mod57] (Eterna round: R96, puzzle: Same State NG 2)	lower
CCGGACAUGAGGAUCACCCAUGUCGACGGAUACCCUUGGGCAUAGGAUAUCUGGAAUUAAAAGAAAGAGAAGGGUGAUCCAAGG [Qusoinrege] (Eterna round: R96, puzzle: Same State NG 3)	middle

Please indicate the class for UGAAUAUUCACAGGAUAUGAGUUGUAAAGUGGAUCAGAAGGGUGGGUGUUUUGCACGGUGUGUUACAUGAGGAUCACCCAUGUU [SameState NG1 #24] (Eterna round: R96, puzzle: Same State NG 1) based on its apparent KD of MS2 coat protein. upper

And then GCUCGUACGAUGACCGACAUGAGGAUCACCCAUGUGUGUCGGUAGGAUAUCUAUAUUAAGGAUUUAGAGAAGGGCCCAACGAGC [SameState NG3 #19] (Eterna round: R96, puzzle: Same State NG 3) , what is it? upper

And then GUAGCAUGCAGCGAGGAUAUUCAUAUUAAAACAUGAGGAUCACCCAUGUAGGCCAAAAGGCCUUGGGAGAAGGCGCACAUGCUAC [Xeonanis - 20] (Eterna round: R96, puzzle: Same State 2) , what is it? middle

And then UCGGGCGUACUUGCUGACAUGAGGAUCACCCAUGUCCUUGGACAGGAUAUGGUUCCGUUUCGGUUCCAGAAGGUCCUGGCUGCU [salish99_SSNG3_r04_320] (Eterna round: R96, puzzle: Same State NG 3) , what is it? middle

---

Would you kindly list apparent KD of MS2 coat protein for each of these sequences?
Tested on: MS2 coat protein
TEST DETAILS: apparent KD of MS2 coat protein; higher = weaker reporter binding
PROTOCOL CONDITIONS: Eterna round: R107; input ligand: theophylline 20 uM
Express the reported value numerically, then name its unit.

Take a look at these entries with their results.
In [3]: df
Out[3]:
                            sequence_record   result
0  UGUAUGGAAACAUGAGGAUCACCCAUGUGGCGAGGACCGGUACGGCCGCCACUCGAGCAGCAAGCGUGUAUGACGCUGCUGCAUG [SS-trypA-0]  60.6 nM
1  UUCAGCUAGUCGGCCGCCACUACAUGAGGAUCACCCAUGUAUCCUAAACACUGCUUCGGCAGUGGUAGGACCGGGACUAGCUGAG  21.6 nM
2  CGACACAUGAGGAUCACCCAUGUAAUGACGCGAGGACCGGUACGGCCGCCACUCGCAUGCCAAUGAGCGCAUGCGGCCUGGGUAU [Exclusion Tryp A GF6]  23.6 nM

Now for a further sequence.
What value of apparent KD of MS2 coat protein on MS2 coat protein does GGAUAGGACACGGCCGCCACUACCUAGGAUACUAGCAACAUUUGGGUACGUGAGGAUCACCCACGUAGGACCGGGUGUCCUAUCG have? 19.1 nM
